Biological target: Alpha-1A adrenergic receptor (Rattus norvegicus) (UniProt P43140)
Sequence (whole entry): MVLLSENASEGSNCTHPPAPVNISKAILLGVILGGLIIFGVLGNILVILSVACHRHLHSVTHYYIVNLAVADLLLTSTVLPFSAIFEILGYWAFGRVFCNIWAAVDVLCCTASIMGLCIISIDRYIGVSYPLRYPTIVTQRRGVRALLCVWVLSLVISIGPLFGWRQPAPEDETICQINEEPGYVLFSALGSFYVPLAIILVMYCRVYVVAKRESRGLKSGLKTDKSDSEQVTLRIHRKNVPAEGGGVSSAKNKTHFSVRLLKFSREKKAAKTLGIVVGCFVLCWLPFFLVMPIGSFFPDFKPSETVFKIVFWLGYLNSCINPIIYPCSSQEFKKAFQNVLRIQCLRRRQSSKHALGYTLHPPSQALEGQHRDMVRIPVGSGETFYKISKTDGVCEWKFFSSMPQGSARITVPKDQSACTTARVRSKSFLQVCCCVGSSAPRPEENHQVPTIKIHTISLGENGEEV
Test: Antagonist activity at adrenergic alpha1A receptor in Wistar rat vas deference assessed as inhibition of (-)-noradrenaline-indcuced contraction
Assay type: functional
EXPERIMENTAL_ENDPOINT: pKb

| COMPOUND | EXPERIMENTAL_ENDPOINT | RESULT |
| --- | --- | --- |
| COc1cccc(OC)c1SCCNCCOc1ccccc1OCc1ccccc1 | pKb | 8.74 |
| COc1cccc(OC)c1[S+]([O-])CCNCCOc1ccccc1OCc1ccccc1 (stereo not given) | pKb | 7.95 |
| COc1cccc([N+](=O)[O-])c1OCCNCCOc1ccccc1OCc1ccccc1 | pKb | 8.41 |
| Cc1cccc(C)c1OCCNCCOc1ccccc1OCc1ccccc1 | pKb | 7.33 |
| COc1cccc(Cl)c1OCCNCCOc1ccccc1OCc1ccccc1 | pKb | 8.16 |
| CCOc1cccc(OCC)c1OCCNCCOc1ccccc1OCc1ccccc1 | pKb | 7.92 |
| c1ccc(COc2ccccc2OCCNCCOc2ccccc2)cc1 | pKb | 7.65 |
| COc1ccccc1OCCNCCOc1ccccc1OCc1ccccc1 | pKb | 7.95 |
| COc1cccc(OC)c1OCCNCCOc1ccccc1OCc1ccccc1 | pKb | 8.39 |
| Clc1cccc(Cl)c1OCCNCCOc1ccccc1OCc1ccccc1 | pKb | 6.57 |
| COc1cccc(OC)c1OCCNCC1COc2ccccc2O1 (stereo not given) | pKb | 9.51 |
| COc1cccc(C)c1OCCNCCOc1ccccc1OCc1ccccc1 | pKb | 8.35 |
| Oc1cccc(O)c1OCCNCCOc1ccccc1OCc1ccccc1 | pKb | 7.44 |
| CCOc1ccccc1OCCNCCOc1ccccc1OCc1ccccc1 | pKb | 8.03 |
| COc1cccc(OC)c1CCCNCCOc1ccccc1OCc1ccccc1 | pKb | 7.8 |

====

Sequence of the target: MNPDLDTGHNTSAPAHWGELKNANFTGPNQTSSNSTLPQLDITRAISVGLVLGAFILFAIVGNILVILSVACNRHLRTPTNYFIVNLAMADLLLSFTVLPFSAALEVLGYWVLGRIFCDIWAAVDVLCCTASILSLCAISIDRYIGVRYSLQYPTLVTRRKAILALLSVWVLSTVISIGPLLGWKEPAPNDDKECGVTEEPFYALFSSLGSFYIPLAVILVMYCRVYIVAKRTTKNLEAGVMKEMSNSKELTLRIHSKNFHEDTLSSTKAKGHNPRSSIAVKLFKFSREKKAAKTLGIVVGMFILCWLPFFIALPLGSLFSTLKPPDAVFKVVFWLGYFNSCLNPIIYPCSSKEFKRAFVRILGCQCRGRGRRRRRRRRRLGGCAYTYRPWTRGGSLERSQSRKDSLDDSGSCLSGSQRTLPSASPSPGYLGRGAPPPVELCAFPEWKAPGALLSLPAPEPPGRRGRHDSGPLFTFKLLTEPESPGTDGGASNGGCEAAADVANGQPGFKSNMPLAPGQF
EXPERIMENTAL_ENDPOINT: Ki (nM)

| SMILES_DATA | OUTPUT_UNIT | RESULT |
| --- | --- | --- |
| COc1cccc(OC)c1SCCNCCOc1ccccc1OCc1ccccc1 | nM | 0.501 |
| Oc1cccc(O)c1OCCNCCOc1ccccc1OCc1ccccc1 | nM | 100 |
| CCOc1cccc(OCC)c1OCCNCCOc1ccccc1OCc1ccccc1 | nM | 0.794 |
| c1ccc(COc2ccccc2OCCNCCOc2ccccc2)cc1 | nM | 100 |

[A] COc1ccccc1OCCNCCOc1ccccc1OCc1ccccc1
[B] COc1cccc([N+](=O)[O-])c1OCCNCCOc1ccccc1OCc1ccccc1
Kindly compare A with B and tell me which has the lower Ki figure. Indicate which entry you chose by stating its label.
B
